Reported MIC values for the following compounds.
Test system: Staphylococcus aureus ssp. aureus (ATCC 6538)

| Smiles String | MIC |
| --- | --- |
| O=C(O[C@H]1[C@@H](OCc2ccccc2)[C@H](O)[C@@H](C[N+]2=C3CCCCCN3CCC2)O[C@@H]1Sc1ccccc1)c1ccccc1 | > 100 µg/mL |
| O[C@@H]1[C@H](O)[C@@H](Sc2ccccc2)O[C@H](C[N+]2=C3CCCCCN3CCC2)[C@H]1OCc1ccc2ccccc2c1 | 6.25 to 50 µg/mL |
| CCS[C@H]1O[C@H](C[N+]2=C3CCCCCN3CCC2)[C@@H](OCc2ccc3ccccc3c2)[C@H](O)[C@H]1O | > 100 µg/mL |
| CO[C@H]1O[C@H](C[N+]2=C3CCCCCN3CCC2)[C@@H](OCc2ccccc2)[C@H](O)[C@H]1O | > 100 µg/mL |
| O=C(O[C@H]1[C@@H](OCc2ccccc2)[C@H](OCc2ccc3ccccc3c2)[C@@H](C[N+]2=C3CCCCCN3CCC2)O[C@@H]1Sc1ccccc1)c1ccccc1 | 6.25 to 50 µg/mL |

Turning now to a further record.
Look up MIC for this compound: c1ccc(CO[C@@H]2[C@H](OCc3ccccc3)[C@@H](Sc3ccccc3)O[C@H](C[N+]3=C4CCCCCN4CCC3)[C@H]2OCc2ccc3ccccc3c2)cc1
< 6.25 µg/mL
